assay: solvent given as SMILES; conditions: in CCCCOC(=O)c1ccccc1C(=O)OCCCC
Below is a list of entries, each paired with its recorded solvation free energy, 298 K value.
endpoint-name: solvation free energy, 298 K (kcal/mol)

- smiles-repr: "CCCCCC"
  endpoint-name: "solvation free energy, 298 K"
  value-measured: -3.24
- smiles-repr: "CCCCC"
  endpoint-name: "solvation free energy, 298 K"
  value-measured: -2.59
- smiles-repr: "CCCCCCC"
  endpoint-name: "solvation free energy, 298 K"
  value-measured: -3.88
- smiles-repr: "CCc1ccccc1"
  endpoint-name: "solvation free energy, 298 K"
  value-measured: -5.38
- smiles-repr: "CCCCCCCC"
  endpoint-name: "solvation free energy, 298 K"
  value-measured: -4.5
